Protocol summary: Use of additives to improve separation of Nd/Dy mixture by precipitation with L5 (Example 18)
Format: physicochemical
Condition description: additive 15 mM; 11 mM L5
Measurement label: Precipitate concentration [mM] Nd (mM)

CC(C)(O)C(=O)O [α-HIBA, alpha-hydroxyisobutyric acid] = 4.33
F [fluoride] = 5.68
C[C@H](O)C(=O)O [l-lactate] = 4.38
O=C(O)CO [glycolate] = 4.54

====

Protocol summary: Use of additives to improve separation of Nd/Dy mixture by precipitation with L5 (Example 18)
Format: physicochemical
Condition description: additive 200 mM; 11 mM L5
Measurement label: Supernatant concentration [mM] Nd

O=C(O)c1ccccc1 = 2.89 mM
N#C[S-].[Na+] [thiocyanate] = 0.41 mM
O=[N+]([O-])O [nitrate] = 0.15 mM
Cl [chloride] = 0.12 mM
NCC(=O)O = 0.28 mM
